Where do these numbers come from? They come from patent US12195456B1.

Biological target: CDK4/cyclin D3 (Homo sapiens, UniProt P11802)
Sequence (P11802 whole entry): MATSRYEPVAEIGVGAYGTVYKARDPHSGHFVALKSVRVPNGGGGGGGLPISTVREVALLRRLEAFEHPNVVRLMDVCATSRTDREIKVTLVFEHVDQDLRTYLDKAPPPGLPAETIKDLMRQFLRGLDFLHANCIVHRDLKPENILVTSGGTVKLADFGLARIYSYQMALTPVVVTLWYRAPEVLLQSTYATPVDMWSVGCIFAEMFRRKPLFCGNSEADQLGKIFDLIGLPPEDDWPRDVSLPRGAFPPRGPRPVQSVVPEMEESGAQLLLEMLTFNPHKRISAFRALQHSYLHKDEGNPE
Sequence (P30281 whole entry partner): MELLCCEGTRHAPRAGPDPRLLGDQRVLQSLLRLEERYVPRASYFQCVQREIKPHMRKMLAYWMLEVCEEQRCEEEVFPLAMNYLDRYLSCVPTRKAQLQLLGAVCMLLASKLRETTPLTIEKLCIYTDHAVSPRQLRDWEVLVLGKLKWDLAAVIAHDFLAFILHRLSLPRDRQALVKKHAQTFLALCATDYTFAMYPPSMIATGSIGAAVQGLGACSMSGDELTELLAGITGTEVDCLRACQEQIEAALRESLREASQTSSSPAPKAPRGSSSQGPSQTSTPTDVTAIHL
Assay: In vitro kinase assay, CDK4/cyclin D3
Settings: in vitro kinase assay
property: pIC50
Scale: pIC50 equals -log10([C]), with [C] in mol/L.

Asked: Supply measured pIC50 of `C=CC(=O)Nc1ccc(C(=O)N2CCN(c3ccc(Nc4ncc5c(C)c(C(C)=O)c(=O)n(C6CCCC6)c5n4)nc3)CC2)cc1` in your reply.
Given back: 9.11
